- experimental.system: T1, orthogonal hCD122 receptor (hoRb), hCD122 with H133D and Y134F (human, UniProt P14784 27-550)
- T1 sequence: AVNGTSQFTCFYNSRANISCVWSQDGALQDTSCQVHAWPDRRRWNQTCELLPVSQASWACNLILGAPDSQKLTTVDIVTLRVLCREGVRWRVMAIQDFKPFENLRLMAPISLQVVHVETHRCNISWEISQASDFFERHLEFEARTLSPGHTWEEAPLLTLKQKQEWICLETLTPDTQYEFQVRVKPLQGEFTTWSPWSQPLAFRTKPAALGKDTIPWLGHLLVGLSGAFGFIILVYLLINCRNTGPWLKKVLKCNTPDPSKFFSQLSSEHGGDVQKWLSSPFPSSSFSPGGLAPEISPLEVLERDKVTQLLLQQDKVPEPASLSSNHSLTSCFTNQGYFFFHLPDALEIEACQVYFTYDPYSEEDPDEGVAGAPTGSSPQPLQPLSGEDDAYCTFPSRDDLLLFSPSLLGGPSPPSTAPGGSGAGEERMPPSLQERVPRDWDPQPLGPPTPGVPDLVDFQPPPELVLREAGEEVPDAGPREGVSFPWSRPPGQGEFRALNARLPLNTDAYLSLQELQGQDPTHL
- protocol.text: cell-based or functional assay
quantity.measured: NKL Ortho Proliferation Signal 1:2

(I) I92F, SQVLKA (ligand) APTSSSTKKTQLQLSQLLVLLKAILNGINNYKNPKLTRMLTFKFYMPKKATELKHLQCLEEELKPLEEVLNLAQSKNFHLRPRDLISNINVFVLELKGSETTFMCEYADETATIVEFLNRWITFCQSIISTLT
(II) ΔD20, SQV_KA (ligand) APTSSSTKKTQLQLSQLLVLKAILNGINNYKNPKLTRMLTFKFYMPKKATELKHLQCLEEELKPLEEVLNLAQSKNFHLRPRDLISNINVIVLELKGSETTFMCEYADETATIVEFLNRWITFCQSIISTLT
Lab note: check whether I or II has the lower measured NKL Ortho Proliferation Signal 1:2. Identify your selection by its label. II
